B1: MATN2 (parent)
chain: TDDSYSCHCLKGFTLNPDKKTCRR

# Variants of: B1
# ASSAY COMMENT: protein stability index of a GFP-peptide fusion (GPS, HEK-293T) (PSI 1-6); higher = more stable;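 further: lentivirally expressed fusions sorted by FACS into six bins by GFP to DsRed ratio, PSI derived from sequencing read proportions per bin multiplied by bin number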
# EXPERIMENTAL CONDITIONS: c terminus: a fixed tail appended
PARAMETER MEASURED: protein stability index
Form: value (number only, do not type unit).

Look up protein stability index of "TDDSYSCHCLKGFTLNPDKKTCRI" and report it.
1.6

Look up protein stability index of "TDDSYSCHCLKGFTLNPDKKTCRE" and report it.
3.43

Look up protein stability index of "TDDSYVCHCLKGFTLNPDKKTCRR" and report it.
3.42

Look up protein stability index of "TDDSYSCHCLKGITLNPDKKTCRR" and report it.
2.05

Look up protein stability index of "TDDSYSCHCNKGFTLNPDKKTCRR" and report it.
3.04

Look up protein stability index of "TDDSYSCGCLKGFTLNPDKKTCRR" and report it.
2.76

Look up protein stability index of "TDDSYSCHCLKGGTLNPDKKTCRR" and report it.
2.88

Look up protein stability index of "TDDSYSCHCLKGDTLNPDKKTCRR" and report it.
2.27

Look up protein stability index of "TDDSFSCHCLKGFTLNPDKKTCRR" and report it.
2.36

Look up protein stability index of "TDDYYSCHCLKGFTLNPDKKTCRR" and report it.
1.77

Look up protein stability index of "TDDSYSCHCLKGFTLNPDKKICRR" and report it.
2.4
